assayDetails: protein stability index of a GFP-peptide fusion (yeast GPS) (PSI 1-4); higher = more stable; sorted into four equal gates, so the index is relative within each strain
testSettings: doa10∆
outcomeMeasure: protein stability index
Enter the number alone.

Would you please look over these solved cases?
{"recordSequence": "LEWNMANLLFKKEKLKQ [RPC82]", "recordedResult": 2.13}
{"recordSequence": "AMVEKYAPDVVRSLENL [RRP42]", "recordedResult": 2.59}

# protein stability index (sequence: EYIELEYRDLYTNSVEL [YMR129W/POM152] ) is 3.16

Record SRQVQKRPRSRTLTAVH [RPS7A] . Reported protein stability index: 2.54

Please fill in: protein stability index reported for LAKIKEEEMAPYYKYLC [RPN7] = 1.28

Entry ERGFACIPLVGISVPFH [FAS1] , protein stability index reported as 1.34

----------
assayDetails: protein stability index of a GFP-peptide fusion (yeast GPS) (PSI 1-4); higher = more stable; sorted into four equal gates, so the index is relative within each strain
testSettings: doa10∆
Decide by protein stability index: equal to or exceeding 3 means satisfied, less means not satisfied.

Illustrative cases are given below, each with its answer.
{"recordSequence": "VHVIHFQHADNSSMRYG [AAR2]", "group": "not satisfied"}
{"recordSequence": "VIIKGFKTYRNETIIDN [SMC3]", "group": "not satisfied"}
{"recordSequence": "GQCRPISKTVRFNVVKV [RPS11A]", "group": "satisfied"}

Problem: Given the entry TLFCCLLRSRLATRRVL [RPO21] , answer whether its protein stability index meets or surpasses 3.
Result: not satisfied

Problem: Is protein stability index for TTTTTTTNNNNTNNNNT [SWI1] at or above 3?
Result: satisfied

Problem: Quick check: does LVLLNGRLRNKSHKQTI [RPP1] have protein stability index greater than or equal to 3?
Result: not satisfied

Problem: Reported protein stability index reaches at least 3 for SYVAVLGMGKAVEKTLA [POP7] ?
Result: not satisfied

Problem: Textbook exercise: given the entry ALTDFERFQVMVLRKQK [RPL14A] , state whether its protein stability index is greater than or equal to 3.
Result: not satisfied

----------
assayDetails: protein stability index of a GFP-peptide fusion (yeast GPS) (PSI 1-4); higher = more stable; sorted into four equal gates, so the index is relative within each strain
testSettings: pdr5∆
outcomeMeasure: protein stability index
Would you mind answering with just the numeric figure?

Worked examples, 2 sequences total:
{"recordSequence": "DESLIRELYKYVRKHDP [PRP28]", "outcomeMeasure": "protein stability index", "recordedResult": 3.48}
{"recordSequence": "KFEPLYPREEEEDYNEF [PRP8]", "outcomeMeasure": "protein stability index", "recordedResult": 3.31}

Briefly, protein stability index measured for GQCRPISKTVRFNVVKV [RPS11A] : 2.93

Input VVLYNYYLGQYYGCLEN [CSN12] . Output protein stability index: 2.57

// protein stability index value for SAPIYVDIEYTRGRNII [RET1] : 2.51

The value of protein stability index measured for the sequence NIKTSEWDLYPQGFSSV [REC8] turned out to be 2.82

According to the records, this sequence RKLMEMENILQRCKSNA [YIL149C/MLP2] displays protein stability index of 2.39

Entry DNETKAMLINLILRDFL [RPN3] , protein stability index reported as 2.66

Memo: VVPNEKADDDSVTIISA [ASC1] , reported protein stability index: 2.9
